Reference source: patent US11617758B2

Experiment: TU solubility in various solubilizers
Conditions: testosterone undecanoate dissolved in the named vehicle
// TU Solubility (mg/g) at 37 C. lookup, one value per entry
Give the number; mg/g is assumed, so skip it.

Some molecules with recorded TU Solubility (mg/g) at 37 C.:
CCCCCCCC/C=C\CCCCCCCC(=O)OCC [Crodamol EO (ethyl oleate), ethyl oleate] = 221
CCCCCCCCCCCCCCCC(=O)OC(C)C [Crodamol IPP (isopropyl palmitate), isopropyl palmitate] = 215
CCCCCCCCCCCCCC(=O)OC(C)C [Crodamol IPM (isopropyl myristate), isopropyl myristate] = 295
CCCCCCCC/C=C\CCCCCCCC(=O)O [Oleic acid] = 405
CCCCC/C=C\C/C=C\CCCCCCCC(=O)OCC [Ethyl linoleate] = 230
Cc1c(C)c2c(c(C)c1O)CCC(C)(CCCC(C)CCCC(C)CCCC(C)C)O2 (racemic) [dl-alpha-tocopherol] = 527

Query: Consider the molecule shown here: CCCCCCCC/C=C\CCCCCCCC(=O)OCC(COC(=O)CCCCCCC/C=C\CCCCCCCC)OC(=O)CCCCCCC/C=C\CCCCCCCC [Glyceryl trioleate (Capmul GTO), Glyceryl trioleate] What is its recorded TU Solubility (mg/g) at 37 C.?
Reply: 154

Query: Then what about the molecule CCOCCOCCO [Transcutol HP, diethylene glycol monoethyl ether] ?
Reply: 180

Query: Then what about the molecule CC/C=C\C/C=C\C/C=C\CCCCCCCC(=O)O [Linolenic acid] ?
Reply: 162

Query: Then what about the molecule CCCCC/C=C\C/C=C\CCCCCCCC(=O)O [Linoleic acid] ?
Reply: 391

Query: Then what about the molecule CCCCCC[C@@H](O)C/C=C\CCCCCCCC(=O)O [Ricinoleic acid] ?
Reply: 244
